# System: 786-0 renal
# Test Description: NCI-60 one-dose screen, 48 h (100 = growth as untreated, 0 = no growth, -100 = all killed)
# Experimental Conditions: 10 µM unless noted
Compounds without any hit were thinned out: in the full panel of roughly 83,000, 20% have a hit.
Reported Endpoint: growth (%)
Answers are plain numbers, in %.

Check out these entries, answers already filled in.
1. O=C1Nc2c(ccc(Cl)c2Cl)/C1=C\c1ccc(C(F)(F)F)cc1 :: 90.7
2. Cc1ccc(OC(=O)c2ccc(Cl)cc2)cc1 :: 90.2
3. CC(C)(CCCN=C(N)Nc1ccc(Cl)cc1)c1ccc(F)cc1 :: 73.4
4. O=C1c2ccccc2OC=C(c2ccccc2)N1CCCCNc1ccc(S(=O)(=O)Nc2ncccn2)cc1 :: 90.6
5. C=CC(=O)Nc1cccc(-c2nc(SC)nc(NCCc3ccc(OC)c(OC)c3)c2C#N)c1 :: 68.2
6. O=[N+]([O-])c1cnc(N2CCN(CC3CC3)CC2)nc1N1CCN(CC2CC2)CC1 :: 94.8
7. Cn1cc(-c2nonc2-c2c[nH]c3ccccc23)c2cccnc21 :: 65.8
8. N#Cc1cnn(-c2nc3c(Cl)cccc3s2)c1N :: 89.4
9. Clc1ccc2c(NCCNc3nc(N4CCOCC4)nc4ccccc34)ccnc2c1 :: -39.9

Please fill in: growth reported for Cc1ccc(NC(=O)C2CCC(CN3CCN(C)CC3)CC2)cc1Nc1nccc(-c2cccnc2)n1 (stereo not given) = 98.7
